Reference for the values: patent US20200223889A1

measuredOn: T1, human melanocortin 4 receptor (human, UniProt P32245 1-332)
T1 construct: whole, on cells; cAMP assay on whole BHK cells; also called MC4R; human MC4 receptor
assayText: competition with 125-NDP-α-MSH, BHK human MC4R membranes
Positions of bridges follow the written chain, without caps; N, C: chain ends. Non-standard residues stand in square brackets, D forms with d. Pro(cis-4-guanidino) = NC(N)=N[C@@H]1CN[C@H](C(=O)O)C1; Thz = O=C(O)[C@@H]1CSCN1; Aib = CC(C)(N)C(=O)O
property: pKi
In plain terms, pKi is the concentration in mol/L turned into minus its base-10 logarithm.

binder	valueReported
cyclo(CAH[dF][Pro(cis-4-guanidino)]WCAH[dF][Pro(cis-4-guanidino)]W) (disulfide 1-7; SMILES C[C@@H]1NC(=O)[C@@H]2CSSC[C@H](NC(=O)[C@H](Cc3c[nH]c4ccccc34)NC(=O)[C@@H]3C[C@H](N=C(N)N)CN3C(=O)[C@@H](Cc3ccccc3)NC(=O)[C@H](Cc3c[nH]cn3)NC1=O)C(=O)N[C@@H](C)C(=O)N[C@@H](Cc1c[nH]cn1)C(=O)N[C@H](Cc1ccccc1)C(=O)N1C[C@@H](N=C(N)N)C[C@H]1C(=O)N[C@@H](Cc1c[nH]c3ccccc13)C(=O)N2, also called c[c[Cys-Ala-His-D-Phe-4cis-GuaPro-Trp-Cys]-Ala-His-D-Phe-4cis-GuaPro-Trp]) [Chem. 29]	5.92
cyclo(C[Thz]H[dF]HWCAAKAW) (disulfide 1-7; SMILES C[C@@H]1NC(=O)[C@H](C)NC(=O)[C@@H]2CSSC[C@H](NC(=O)[C@H](Cc3c[nH]c4ccccc34)NC(=O)[C@H](C)NC(=O)[C@H](CCCCN)NC1=O)C(=O)N1CSC[C@H]1C(=O)N[C@@H](Cc1c[nH]cn1)C(=O)N[C@H](Cc1ccccc1)C(=O)N[C@@H](Cc1c[nH]cn1)C(=O)N[C@@H](Cc1c[nH]c3ccccc13)C(=O)N2, also called c[c[Cys-THAZ-His-D-Phe-His-Trp-Cys]-Ala-Ala-Lys-Ala-Trp]) [Chem. 109]	9.52
cyclo(CKH[dF]HWCAKKKR) (disulfide 1-7; SMILES C[C@@H]1NC(=O)[C@@H]2CSSC[C@H](NC(=O)[C@H](CCCNC(=N)N)NC(=O)[C@H](CCCCN)NC(=O)[C@H](CCCCN)NC(=O)[C@H](CCCCN)NC1=O)C(=O)N[C@@H](CCCCN)C(=O)N[C@@H](Cc1c[nH]cn1)C(=O)N[C@H](Cc1ccccc1)C(=O)N[C@@H](Cc1c[nH]cn1)C(=O)N[C@@H](Cc1c[nH]c3ccccc13)C(=O)N2, also called c[c[Cys-Lys-His-D-Phe-His-Trp-Cys]-Ala-Lys-Lys-Lys-Arg]) [Chem. 78]	10.70

Respond only with pKi recorded for cyclo(C[Aib]H[dF]HWCAKKKW) (disulfide 1-7; SMILES C[C@@H]1NC(=O)[C@@H]2CSSC[C@H](NC(=O)[C@H](Cc3c[nH]c4ccccc34)NC(=O)[C@H](CCCCN)NC(=O)[C@H](CCCCN)NC(=O)[C@H](CCCCN)NC1=O)C(=O)NC(C)(C)C(=O)N[C@@H](Cc1c[nH]cn1)C(=O)N[C@H](Cc1ccccc1)C(=O)N[C@@H](Cc1c[nH]cn1)C(=O)N[C@@H](Cc1c[nH]c3ccccc13)C(=O)N2, also called c[c[Cys-Aib-His-D-Phe-His-Trp-Cys]-Ala-Lys-Lys-Lys-Trp]) [Chem. 61]
9.66
